Each entry below carries its reported cyIL1RAP kon(1/Ms).
System: cyIL1RAP
Assay: Kinetics of IL1RAP mAbs by Octet, cynomolgus IL1RAP
Type: binding

molecule: 74804_05B24A: anti-IL1RAP mAb; VH SEQ ID NO:10, VL SEQ ID NO:26, κ light chain (antibody, V domains shown, 74804_05B24A VH; 74804_05B24A VL) VH: EVQLVDSGGGLVKPGGSLRLSCAATGFTFSNVWMSWVRQGSGKGLEWVGRIKSKTDGGTIDYAAPVKGRFTISRDDPKNTLYLQMNSLKTEDTAVYYCTTGELLGFDYWGQGTLVTVSS VL: DIVMTQSPLSLPVTPGEPASISCRSGQSLLHNNGFNCLAWYLQKPGQSPQLLIYLGSNRASGVPDRFSGSGSGTDFTLKISRVEAEDVGVFYCMQTLQTPITFGQGTRLEIK
cyIL1RAP kon(1/Ms): 267900 M⁻¹ s⁻¹

Would you kindly look at the next entry?
Prompt: So what does the record say about cyIL1RAP kon(1/Ms) for 74804_51C10A: anti-IL1RAP mAb; VH SEQ ID NO:8, VL SEQ ID NO:24, κ light chain (antibody, V domains shown, 74804_51C10A VH; 74804_51C10A VL) VH: QVQLLQSGAEVKKPGSSVKVSCKASGGTFNIYAIDWVRQAPGQGLEWMGGIIPIFGTANSAQKFQGRVTITADKSTNTAYMELSSLRSEDTAVYYCARNGATSDAFDIWGQGTMVTVSS VL: EIVLTQSPGTLSLSPGERATLSCRASQSVSSNYLAWFQQRPGQAPRLLIYGVSRRATGIPDRFSGSGSGTDFTLTISRLEPEDFAVYYCQQYGSSPLTFGGGTKVEIK ?
Completion: 325600 M⁻¹ s⁻¹
